# Target entity: HLA-A*69:01
# Assay details: IEDB peptide-MHC binding, purified MHC/competitive/fluorescence; filed as Kd, often an IC50 or EC50 that approximates it; bounds were set here for any values at or beyond the usual limits of such assays
# Conditions: source organism: Homo sapiens
Exercise: for every item that follows, state its recorded Kd.

get_value(item= YSDNEMLTH , readout=Kd) returns ≥ 20 µM

get_value(item= SLFNWLWYE , readout=Kd) returns ≥ 20 µM

* * *

# Target entity: HLA-A*02:03
# Assay details: IEDB peptide-MHC binding, purified MHC/competitive/radioactivity; filed as Kd, often an IC50 or EC50 that approximates it; bounds were set here for any values at or beyond the usual limits of such assays
# Conditions: source organism: SARS coronavirus Tor2
# label = MET if Kd < 80 nM else NOT MET

Query block: Record YALCTLLHL : is its Kd strictly below 80 nM?
Result block: NOT MET

Query block: Record AIYVFCISL : is its Kd strictly below 80 nM?
Result block: NOT MET

Query block: Record VMFNGVTFST : is its Kd strictly below 80 nM?
Result block: MET

Query block: Record ALVCYIVMPV : is its Kd strictly below 80 nM?
Result block: MET

Query block: Record FLTNKLLLFA : is its Kd strictly below 80 nM?
Result block: MET

Query block: Record QLMCQPILLL : is its Kd strictly below 80 nM?
Result block: NOT MET

Query block: Record FLAFLLFLVL : is its Kd strictly below 80 nM?
Result block: NOT MET

* * *

# Target entity: HLA-B*39:01
# Assay details: IEDB peptide-MHC binding, purified MHC/direct/fluorescence; filed as Kd, often an IC50 or EC50 that approximates it; bounds were set here for any values at or beyond the usual limits of such assays
# Conditions: source organism: Coxiella burnetii Q321
Quantity name: Kd

get_value(item= HEGDIVPLF , readout=Kd) returns ≥ 20 µM

* * *

Exercise: for every item that follows, state its recorded Kd.
# Target entity: HLA-B*39:01
# Assay details: IEDB peptide-MHC binding, purified MHC/competitive/fluorescence; filed as Kd, often an IC50 or EC50 that approximates it; bounds were set here for any values at or beyond the usual limits of such assays
# Conditions: source organism: Bacillus anthracis str. A0488

get_value(item= IQKGMFVVK , readout=Kd) returns ≥ 20 µM

get_value(item= SYMLQGLRK , readout=Kd) returns ≥ 20 µM

* * *

# Target entity: HLA-B*44:02
# Assay details: IEDB peptide-MHC binding, purified MHC/direct/fluorescence; filed as Kd, often an IC50 or EC50 that approximates it; bounds were set here for any values at or beyond the usual limits of such assays
# Conditions: source organism: Shigella flexneri
Quantity name: Kd

# lookup: KTTLFHTFK on HLA-B*44:02, Kd = ≥ 20 µM

* * *

# Target entity: HLA-B*15:01
# Assay details: IEDB peptide-MHC binding, purified MHC/direct/fluorescence; filed as Kd, often an IC50 or EC50 that approximates it; bounds were set here for any values at or beyond the usual limits of such assays
# Conditions: source organism: Yersinia pestis CA88-4125
Quantity name: Kd

get_value(item= LPEAYQWHI , readout=Kd) returns ≥ 20 µM

* * *

# Target entity: HLA-B*07:02
# Assay details: IEDB peptide-MHC binding, purified MHC/direct/fluorescence; filed as Kd, often an IC50 or EC50 that approximates it; bounds were set here for any values at or beyond the usual limits of such assays
# Conditions: source organism: Pseudomonas putida
Quantity name: Kd

get_value(item= RVWRGEQGK , readout=Kd) returns ≥ 20 µM
